tested on: MS2 coat protein; experiment: apparent KD of MS2 coat protein; designed switch direction (-1 OFF switch, 1 ON switch): 1; higher = weaker reporter binding; conditions: input ligand: none
apparent KD of MS2 coat protein: recorded values
Reply numerically in nM, unit not repeated.

Task: Given the sequence UUAUUAUUUACAUGAGGAUCACCCAUGUUUUUAUGUCAGAGAUAGGAUAUAGAAGUCUCGUUUUACUAGAAGGAUCUUUUUAUU [JR_SSNG3_Sub083] (Eterna round: R96, puzzle: Same State NG 3) , what is its reported apparent KD of MS2 coat protein?
Result: 22.8

Task: Given the sequence AGCUAUUAAUCAGGAUAUGGUGACAUGAGGAUCACCCAUGUAUUGAUGAUUAAAUGUGGUCACUACCAGAAGGGAUUACUAACA [SameState NG2 #50] (Eterna round: R96, puzzle: Same State NG 2) , what is its reported apparent KD of MS2 coat protein?
Result: 260

Task: Given the sequence CUGAGCGAUCAAGGAUAUCACGUCGAUUAGACGUGAGAAGGUGAUCCAUACAUGAGGAUCACCCAUGUAUAACAUGAAGCUCAG [SSNG1/8-A2] (Eterna round: R96, puzzle: Same State NG 1) , what is its reported apparent KD of MS2 coat protein?
Result: 861

Sourced from the supplement of paper PMC9170038
